# credit: paper PMC9287160

- assay-target: human integrin αMβ2 headpiece fragment, P11215;P05107
- experiment-summary: BLI competition assay
- condition-set: chain shown with the change; 20 nM αMβ2 HP preincubated with 10-fold molar excess of nanobody variant; immobilized biotinylated avi-tagged WT hCD11bNb1; signal is HP binding to the sensor …; parent: est. 0.31; read off a plot
measurement-label: response (nm)

nanobody hCD11bNb1 (His-tagged) F32A (protein) QVQLVETGGGLVQAGGSLRLSCAASGNINSANAMGWFRQAPGKQRELVAAITFGGRTNYADSVKGRFTISRDNTKGSVYLQMNSLKPEDTAVYYCAASENNLLTGVWHYWGRGTQVTVSS    1.1
nanobody hCD11bNb1 (His-tagged) N30A (protein) QVQLVETGGGLVQAGGSLRLSCAASGNIASFNAMGWFRQAPGKQRELVAAITFGGRTNYADSVKGRFTISRDNTKGSVYLQMNSLKPEDTAVYYCAASENNLLTGVWHYWGRGTQVTVSS    0.98
nanobody hCD11bNb1 (His-tagged) F54A (protein) QVQLVETGGGLVQAGGSLRLSCAASGNINSFNAMGWFRQAPGKQRELVAAITAGGRTNYADSVKGRFTISRDNTKGSVYLQMNSLKPEDTAVYYCAASENNLLTGVWHYWGRGTQVTVSS    1.2
nanobody hCD11bNb1 (His-tagged) I29A (protein) QVQLVETGGGLVQAGGSLRLSCAASGNANSFNAMGWFRQAPGKQRELVAAITFGGRTNYADSVKGRFTISRDNTKGSVYLQMNSLKPEDTAVYYCAASENNLLTGVWHYWGRGTQVTVSS    0.45
nanobody hCD11bNb1 (His-tagged) N101A (protein) QVQLVETGGGLVQAGGSLRLSCAASGNINSFNAMGWFRQAPGKQRELVAAITFGGRTNYADSVKGRFTISRDNTKGSVYLQMNSLKPEDTAVYYCAASEANLLTGVWHYWGRGTQVTVSS    1.2
